assay-system: CCL8 (Homo sapiens, UniProt P80075)
Construct: purchased Peprotech 300-15
Sequence (P80075 24-99): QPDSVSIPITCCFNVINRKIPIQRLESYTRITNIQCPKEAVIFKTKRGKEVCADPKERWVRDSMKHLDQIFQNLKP
test: CCL8-induced THP1 cell migration (chemotaxis)
Type: cell-based
pIC50: −log10 of the molar value. Ends that are not written are not given here.

substance: EEDDYTAYAPLTCYFT-NH2 [HD2]
pIC50: 7.72

###

assay-system: CXCL6 (Homo sapiens, UniProt P80162)
Construct: purchased Peprotech 300-41
Sequence (P80162 38-114): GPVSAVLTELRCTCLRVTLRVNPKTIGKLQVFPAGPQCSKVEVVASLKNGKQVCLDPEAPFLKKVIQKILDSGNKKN
test: CXCL6-induced Jurkat CXCR1 (J:CXCR1) migration (chemotaxis)
Format: cell-based
pIC50: −log10 of the molar value. Ends that are not written are not given here.
measure-name: pIC50

substance: EEDDYTAYAPLTCYFT-NH2 [HD2]
recorded-value: 5.15

###

assay-system: CCL5 (Homo sapiens)
Construct: purchased Peprotech 300-06
Sequence (P13501 24-91): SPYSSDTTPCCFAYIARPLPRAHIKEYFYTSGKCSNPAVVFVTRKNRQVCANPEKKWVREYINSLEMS
test: CCL5-induced THP1 cell migration (chemotaxis)
Format: cell-based
pIC50: −log10 of the molar value. Ends that are not written are not given here.

substance: EEDDYTAYAPLTCYFT-NH2 [HD2]
assay-system: CCL5 (Homo sapiens)
pIC50: 6.10

###

assay-system: CXCL10 (Homo sapiens, UniProt P02778)
Construct: purchased Peprotech 300-12
Sequence (P02778 22-98): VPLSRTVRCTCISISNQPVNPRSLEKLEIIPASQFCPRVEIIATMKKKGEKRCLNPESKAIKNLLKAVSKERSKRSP
test: CXCL10-induced activated T cell (ATC) migration (chemotaxis)
Type: cell-based
pIC50: −log10 of the molar value. Ends that are not written are not given here.
measure-name: pIC50

substance: EEDDYTAYAPLTCYFT-NH2 [HD2]
assay-system: CXCL10 (Homo sapiens, UniProt P02778)
recorded-value: 5.60
